- TARGET DESC: Serine/threonine-protein kinase Chk1 (Homo sapiens, UniProt O14757)
- ASSAY REMARKS: Inhibition of CHK1 in human HeLa cells lysate pre incubated for 15 mins followed by ATP acyl phosphate probe addition and measured after 10 mins by LC-MS/MS analysis
- Type: subcellular
PROPERTY LABEL: IC50

Request: Check the records and state IC50 for CCOc1cc(N2CCC(O)CC2)ccc1Nc1ncc2c(n1)N(C)c1ccccc1C(=O)N2C
Response: > 50 µM

====

- TARGET DESC: Ribosomal protein S6 kinase alpha-3 (Homo sapiens)
- Sequence (P51812 whole entry, the tested form may be a part): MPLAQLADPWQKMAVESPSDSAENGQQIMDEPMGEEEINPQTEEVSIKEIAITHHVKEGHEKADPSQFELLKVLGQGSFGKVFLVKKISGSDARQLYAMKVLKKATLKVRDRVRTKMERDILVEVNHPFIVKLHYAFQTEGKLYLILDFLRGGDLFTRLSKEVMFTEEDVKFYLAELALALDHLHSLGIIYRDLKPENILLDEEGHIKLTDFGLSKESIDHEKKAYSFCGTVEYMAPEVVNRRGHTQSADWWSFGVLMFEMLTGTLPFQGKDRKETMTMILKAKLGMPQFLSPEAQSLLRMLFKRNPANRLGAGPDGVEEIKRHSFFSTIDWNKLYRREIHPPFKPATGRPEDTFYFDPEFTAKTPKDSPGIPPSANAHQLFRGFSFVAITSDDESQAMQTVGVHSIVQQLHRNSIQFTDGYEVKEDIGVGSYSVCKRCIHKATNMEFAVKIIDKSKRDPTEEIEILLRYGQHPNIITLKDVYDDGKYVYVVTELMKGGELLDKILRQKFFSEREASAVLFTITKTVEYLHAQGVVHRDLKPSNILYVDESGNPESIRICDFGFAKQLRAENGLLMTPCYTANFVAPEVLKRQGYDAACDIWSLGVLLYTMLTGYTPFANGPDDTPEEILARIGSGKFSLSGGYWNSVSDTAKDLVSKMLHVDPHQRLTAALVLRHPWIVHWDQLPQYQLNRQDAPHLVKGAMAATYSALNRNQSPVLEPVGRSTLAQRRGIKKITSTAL
- ASSAY REMARKS: Inhibition of RSK2 in human HeLa cells lysate pre incubated for 15 mins followed by ATP acyl phosphate probe addition and measured after 10 mins by LC-MS/MS analysis
- Assay type: subcellular
PROPERTY LABEL: IC50

Request: Check the records and state IC50 for CCOc1cc(N2CCC(O)CC2)ccc1Nc1ncc2c(n1)N(C)c1ccccc1C(=O)N2C
Response: > 50 µM

====

- TARGET DESC: Serine/threonine-protein kinase PLK1 (Homo sapiens, UniProt P53350)
- Sequence (P53350 whole entry): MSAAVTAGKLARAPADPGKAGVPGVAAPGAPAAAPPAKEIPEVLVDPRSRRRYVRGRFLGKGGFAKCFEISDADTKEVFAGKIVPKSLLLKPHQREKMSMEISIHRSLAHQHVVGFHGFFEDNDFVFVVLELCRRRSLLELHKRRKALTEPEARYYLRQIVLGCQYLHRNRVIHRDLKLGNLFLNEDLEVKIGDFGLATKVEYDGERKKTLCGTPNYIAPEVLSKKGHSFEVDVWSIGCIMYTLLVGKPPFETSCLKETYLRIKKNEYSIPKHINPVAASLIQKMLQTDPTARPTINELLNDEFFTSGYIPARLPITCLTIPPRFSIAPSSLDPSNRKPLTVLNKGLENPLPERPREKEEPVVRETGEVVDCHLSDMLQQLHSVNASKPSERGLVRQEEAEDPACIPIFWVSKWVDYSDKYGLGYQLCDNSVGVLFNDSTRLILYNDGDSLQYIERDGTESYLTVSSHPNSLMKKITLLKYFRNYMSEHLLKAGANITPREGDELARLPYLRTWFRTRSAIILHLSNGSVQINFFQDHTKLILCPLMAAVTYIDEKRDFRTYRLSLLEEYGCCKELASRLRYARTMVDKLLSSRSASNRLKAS
- ASSAY REMARKS: Inhibition of PLK1 K2 site in human HeLa cells lysate pre incubated for 15 mins followed by ATP acyl phosphate probe addition and measured after 10 mins by LC-MS/MS analysis
- Type: subcellular
PROPERTY LABEL: IC50

Request: Check the records and state IC50 for CCOc1cc(N2CCC(O)CC2)ccc1Nc1ncc2c(n1)N(C)c1ccccc1C(=O)N2C
Response: > 50 µM

====

- TARGET DESC: Activated CDC42 kinase 1 (Homo sapiens, UniProt Q07912)
- ASSAY REMARKS: Inhibition of ACK1 in human HeLa cells lysate pre incubated for 15 mins followed by ADP acyl phosphate probe addition and measured after 10 mins by LC-MS/MS analysis
PROPERTY LABEL: pIC50
// field semantics: pIC50 = negative decimal log of concentration (mol/L)

Request: Write down the reported pIC50 (system: Activated CDC42 kinase 1 (Homo sapiens, UniProt Q07912)) of CCOc1cc(N2CCC(O)CC2)ccc1Nc1ncc2c(n1)N(C)c1ccccc1C(=O)N2C
Response: 4.74

====

- TARGET DESC: Protein kinase C iota type (Homo sapiens, UniProt P41743)
- Sequence (P41743 whole entry): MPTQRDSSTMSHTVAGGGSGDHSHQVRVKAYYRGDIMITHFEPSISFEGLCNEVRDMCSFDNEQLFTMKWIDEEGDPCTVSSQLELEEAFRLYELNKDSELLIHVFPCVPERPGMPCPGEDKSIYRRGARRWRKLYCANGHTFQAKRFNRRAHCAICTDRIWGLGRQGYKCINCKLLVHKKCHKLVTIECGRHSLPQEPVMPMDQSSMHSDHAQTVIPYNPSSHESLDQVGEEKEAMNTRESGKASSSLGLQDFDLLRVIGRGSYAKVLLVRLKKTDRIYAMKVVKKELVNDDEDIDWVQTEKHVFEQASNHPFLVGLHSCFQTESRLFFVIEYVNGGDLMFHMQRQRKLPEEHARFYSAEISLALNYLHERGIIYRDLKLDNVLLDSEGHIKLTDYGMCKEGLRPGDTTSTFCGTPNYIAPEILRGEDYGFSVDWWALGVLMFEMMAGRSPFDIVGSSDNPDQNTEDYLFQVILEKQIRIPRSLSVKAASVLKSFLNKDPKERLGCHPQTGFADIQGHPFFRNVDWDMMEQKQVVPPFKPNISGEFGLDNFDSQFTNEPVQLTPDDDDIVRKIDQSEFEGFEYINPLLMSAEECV
- ASSAY REMARKS: Inhibition of PKCiota in human HeLa cells lysate pre incubated for 15 mins followed by ADP acyl phosphate probe addition and measured after 10 mins by LC-MS/MS analysis
pIC50: −log10 of the molar value.
PROPERTY LABEL: pIC50

Request: Check the records and state pIC50 for CCOc1cc(N2CCC(O)CC2)ccc1Nc1ncc2c(n1)N(C)c1ccccc1C(=O)N2C
Response: < 4.30

====

- TARGET DESC: Calcium/calmodulin-dependent protein kinase type II subunit delta (Homo sapiens, UniProt Q13557)
- ASSAY REMARKS: Inhibition of CAMK2d in human HeLa cells lysate pre incubated for 15 mins followed by ATP acyl phosphate probe addition and measured after 10 mins by LC-MS/MS analysis
- Assay type: subcellular
pIC50: −log10 of the molar value.
PROPERTY LABEL: pIC50

Request: Check the records and state pIC50 for CCOc1cc(N2CCC(O)CC2)ccc1Nc1ncc2c(n1)N(C)c1ccccc1C(=O)N2C
Response: < 4.30

====

- TARGET DESC: Mitogen-activated protein kinase kinase kinase 1 (Homo sapiens)
- Sequence (Q13233 whole entry): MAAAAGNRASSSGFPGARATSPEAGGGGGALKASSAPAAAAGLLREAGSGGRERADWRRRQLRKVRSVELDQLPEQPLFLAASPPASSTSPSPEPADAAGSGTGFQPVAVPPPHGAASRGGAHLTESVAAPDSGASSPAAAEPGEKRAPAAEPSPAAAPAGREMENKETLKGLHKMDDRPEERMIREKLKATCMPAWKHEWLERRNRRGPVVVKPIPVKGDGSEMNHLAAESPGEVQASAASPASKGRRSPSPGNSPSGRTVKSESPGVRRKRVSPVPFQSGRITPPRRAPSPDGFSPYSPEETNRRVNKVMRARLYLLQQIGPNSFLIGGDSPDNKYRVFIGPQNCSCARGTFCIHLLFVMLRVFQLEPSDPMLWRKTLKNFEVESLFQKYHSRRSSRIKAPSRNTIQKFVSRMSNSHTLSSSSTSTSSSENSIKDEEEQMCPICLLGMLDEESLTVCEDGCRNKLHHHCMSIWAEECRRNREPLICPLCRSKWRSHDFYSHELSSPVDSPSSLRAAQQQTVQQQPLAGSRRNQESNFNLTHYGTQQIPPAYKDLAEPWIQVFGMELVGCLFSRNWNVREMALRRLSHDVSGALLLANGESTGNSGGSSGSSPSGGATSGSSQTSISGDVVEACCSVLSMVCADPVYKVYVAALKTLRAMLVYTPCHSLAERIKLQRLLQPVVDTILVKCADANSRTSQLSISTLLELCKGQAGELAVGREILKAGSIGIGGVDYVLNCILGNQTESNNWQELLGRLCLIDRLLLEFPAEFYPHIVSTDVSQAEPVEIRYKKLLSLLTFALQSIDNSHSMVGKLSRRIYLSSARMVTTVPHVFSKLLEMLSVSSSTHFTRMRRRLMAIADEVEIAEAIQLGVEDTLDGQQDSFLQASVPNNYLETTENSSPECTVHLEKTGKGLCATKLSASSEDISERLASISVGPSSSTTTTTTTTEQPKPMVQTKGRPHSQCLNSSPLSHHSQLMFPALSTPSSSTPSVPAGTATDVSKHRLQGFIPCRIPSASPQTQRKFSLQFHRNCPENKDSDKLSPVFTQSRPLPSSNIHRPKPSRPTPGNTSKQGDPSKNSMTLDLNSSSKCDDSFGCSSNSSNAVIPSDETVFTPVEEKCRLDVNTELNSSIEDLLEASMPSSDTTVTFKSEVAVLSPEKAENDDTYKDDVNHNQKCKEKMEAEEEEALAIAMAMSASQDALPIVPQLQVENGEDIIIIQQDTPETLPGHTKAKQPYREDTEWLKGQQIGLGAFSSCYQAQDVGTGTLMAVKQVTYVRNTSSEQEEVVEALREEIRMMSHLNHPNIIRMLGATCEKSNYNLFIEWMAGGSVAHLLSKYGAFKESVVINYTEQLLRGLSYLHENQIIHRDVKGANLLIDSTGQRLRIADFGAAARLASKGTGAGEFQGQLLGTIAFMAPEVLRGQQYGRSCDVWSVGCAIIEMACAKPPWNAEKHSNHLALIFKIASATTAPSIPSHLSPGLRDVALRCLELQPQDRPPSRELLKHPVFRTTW
- ASSAY REMARKS: Inhibition of MAP3K1 in human HeLa cells lysate pre incubated for 15 mins followed by ADP acyl phosphate probe addition and measured after 10 mins by LC-MS/MS analysis
PROPERTY LABEL: IC50

Request: Write down the reported IC50 (system: Mitogen-activated protein kinase kinase kinase 1 (Homo sapiens)) of CCOc1cc(N2CCC(O)CC2)ccc1Nc1ncc2c(n1)N(C)c1ccccc1C(=O)N2C
Response: > 50 µM

====

- TARGET DESC: MAP/microtubule affinity-regulating kinase 3 (Homo sapiens)
- ASSAY REMARKS: Inhibition of MARK3 in human HeLa cells lysate pre incubated for 15 mins followed by ADP acyl phosphate probe addition and measured after 10 mins by LC-MS/MS analysis
- Type: subcellular
PROPERTY LABEL: IC50

Request: Check the records and state IC50 for CCOc1cc(N2CCC(O)CC2)ccc1Nc1ncc2c(n1)N(C)c1ccccc1C(=O)N2C
Response: > 50 µM

====

- TARGET DESC: Calcium/calmodulin-dependent protein kinase type 1D (Homo sapiens)
- Sequence (Q8IU85 whole entry): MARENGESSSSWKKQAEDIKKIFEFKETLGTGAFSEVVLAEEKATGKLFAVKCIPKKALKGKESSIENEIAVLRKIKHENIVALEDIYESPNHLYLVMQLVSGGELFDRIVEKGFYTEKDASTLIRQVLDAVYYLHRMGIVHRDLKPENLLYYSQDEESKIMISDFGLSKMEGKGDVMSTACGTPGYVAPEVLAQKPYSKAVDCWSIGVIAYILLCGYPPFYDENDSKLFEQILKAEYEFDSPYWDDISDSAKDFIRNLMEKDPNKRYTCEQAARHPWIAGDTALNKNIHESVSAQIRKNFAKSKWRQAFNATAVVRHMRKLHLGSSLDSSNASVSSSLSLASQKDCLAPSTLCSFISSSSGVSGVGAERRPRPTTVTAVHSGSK
- ASSAY REMARKS: Inhibition of CAMK1d in human HeLa cells lysate pre incubated for 15 mins followed by ATP acyl phosphate probe addition and measured after 10 mins by LC-MS/MS analysis
- Assay type: subcellular
PROPERTY LABEL: IC50

Request: Check the records and state IC50 for CCOc1cc(N2CCC(O)CC2)ccc1Nc1ncc2c(n1)N(C)c1ccccc1C(=O)N2C
Response: > 50 µM

====

- TARGET DESC: Dual specificity mitogen-activated protein kinase kinase 5 (Homo sapiens, UniProt Q13163)
- Sequence (Q13163 whole entry): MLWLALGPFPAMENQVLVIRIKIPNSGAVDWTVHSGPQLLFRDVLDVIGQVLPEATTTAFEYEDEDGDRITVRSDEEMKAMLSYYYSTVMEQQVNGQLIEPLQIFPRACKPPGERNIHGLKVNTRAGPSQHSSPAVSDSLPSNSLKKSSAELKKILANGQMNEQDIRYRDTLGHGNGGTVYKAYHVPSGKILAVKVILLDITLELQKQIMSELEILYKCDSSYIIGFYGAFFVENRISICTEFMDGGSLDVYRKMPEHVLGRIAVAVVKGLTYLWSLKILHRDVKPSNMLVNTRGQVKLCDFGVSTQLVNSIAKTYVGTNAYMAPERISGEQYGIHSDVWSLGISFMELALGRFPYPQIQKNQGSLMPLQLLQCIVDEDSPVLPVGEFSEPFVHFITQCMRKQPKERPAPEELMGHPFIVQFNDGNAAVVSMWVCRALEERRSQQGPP
- ASSAY REMARKS: Inhibition of MAP2K5 in human HeLa cells lysate pre incubated for 15 mins followed by ADP acyl phosphate probe addition and measured after 10 mins by LC-MS/MS analysis
- Assay type: subcellular
pIC50: −log10 of the molar value.
PROPERTY LABEL: pIC50

Request: Check the records and state pIC50 for CCOc1cc(N2CCC(O)CC2)ccc1Nc1ncc2c(n1)N(C)c1ccccc1C(=O)N2C
Response: < 4.30

====

- TARGET DESC: Serine/threonine-protein kinase 38-like (Homo sapiens, UniProt Q9Y2H1)
- Sequence (Q9Y2H1 whole entry): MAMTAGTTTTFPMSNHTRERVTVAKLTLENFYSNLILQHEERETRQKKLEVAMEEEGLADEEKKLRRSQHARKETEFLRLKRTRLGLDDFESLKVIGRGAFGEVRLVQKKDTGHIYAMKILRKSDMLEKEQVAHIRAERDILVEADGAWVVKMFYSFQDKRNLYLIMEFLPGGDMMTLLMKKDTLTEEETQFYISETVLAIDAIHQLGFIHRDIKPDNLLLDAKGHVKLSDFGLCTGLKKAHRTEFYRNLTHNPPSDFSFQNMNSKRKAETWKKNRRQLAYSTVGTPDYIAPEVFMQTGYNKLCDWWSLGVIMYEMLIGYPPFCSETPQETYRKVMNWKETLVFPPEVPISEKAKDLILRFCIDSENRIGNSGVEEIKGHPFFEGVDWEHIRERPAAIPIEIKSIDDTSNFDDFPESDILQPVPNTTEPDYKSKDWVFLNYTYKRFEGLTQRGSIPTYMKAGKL
- ASSAY REMARKS: Inhibition of NDR2 in human HeLa cells lysate pre incubated for 15 mins followed by ADP acyl phosphate probe addition and measured after 10 mins by LC-MS/MS analysis
pIC50: −log10 of the molar value.
PROPERTY LABEL: pIC50

Request: Check the records and state pIC50 for CCOc1cc(N2CCC(O)CC2)ccc1Nc1ncc2c(n1)N(C)c1ccccc1C(=O)N2C
Response: < 4.30

====

- ASSAY REMARKS: AUCinfinity in Sprague-Dawley rat at 1 mg/kg, iv measured up to 8 hrs by LC-MS/MS analysis
- Assay type: ADME, organism-based
- RUN CONDITIONS: in vivo
PROPERTY LABEL: AUC(0-inf) (µM·h)
Numbers only; they are read as µM·h.

Request: Check the records and state AUC(0-inf) for CCOc1cc(N2CCC(O)CC2)ccc1Nc1ncc2c(n1)N(C)c1ccccc1C(=O)N2C
Response: 1.39

====

- TARGET DESC: UniProt:O75582
- Sequence (O75582 whole entry): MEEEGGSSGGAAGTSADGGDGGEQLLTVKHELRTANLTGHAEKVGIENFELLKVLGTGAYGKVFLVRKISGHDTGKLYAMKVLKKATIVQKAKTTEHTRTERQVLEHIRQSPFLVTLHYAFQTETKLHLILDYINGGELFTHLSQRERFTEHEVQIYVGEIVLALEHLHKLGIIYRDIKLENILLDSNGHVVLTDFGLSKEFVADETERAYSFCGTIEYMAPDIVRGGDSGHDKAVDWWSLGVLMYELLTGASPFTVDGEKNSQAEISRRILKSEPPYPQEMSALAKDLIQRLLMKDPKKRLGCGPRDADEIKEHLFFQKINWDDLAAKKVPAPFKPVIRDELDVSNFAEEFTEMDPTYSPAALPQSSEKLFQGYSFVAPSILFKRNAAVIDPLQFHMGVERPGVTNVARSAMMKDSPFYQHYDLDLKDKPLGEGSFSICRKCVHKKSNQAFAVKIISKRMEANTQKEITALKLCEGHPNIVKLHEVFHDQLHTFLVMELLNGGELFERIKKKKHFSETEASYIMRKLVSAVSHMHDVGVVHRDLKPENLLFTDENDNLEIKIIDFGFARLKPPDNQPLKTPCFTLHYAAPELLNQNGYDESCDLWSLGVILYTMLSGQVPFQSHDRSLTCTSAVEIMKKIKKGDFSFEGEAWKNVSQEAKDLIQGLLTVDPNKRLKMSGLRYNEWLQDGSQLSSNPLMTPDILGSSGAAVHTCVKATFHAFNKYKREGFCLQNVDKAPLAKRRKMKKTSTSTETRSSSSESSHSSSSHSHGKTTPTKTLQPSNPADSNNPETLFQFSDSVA
- ASSAY REMARKS: Inhibition of MSK1 in human HeLa cells lysate pre incubated for 15 mins followed by ATP acyl phosphate probe addition and measured after 10 mins by LC-MS/MS analysis
- Type: subcellular
pIC50: −log10 of the molar value.
PROPERTY LABEL: pIC50

Request: Check the records and state pIC50 for CCOc1cc(N2CCC(O)CC2)ccc1Nc1ncc2c(n1)N(C)c1ccccc1C(=O)N2C
Response: < 4.30

====

- TARGET DESC: Ribosomal protein S6 kinase alpha-3 (Homo sapiens)
- ASSAY REMARKS: Inhibition of RSK2 domain 2 in human HeLa cells lysate pre incubated for 15 mins followed by ATP acyl phosphate probe addition and measured after 10 mins by LC-MS/MS analysis
- Format: subcellular
PROPERTY LABEL: IC50 (µM)
Numbers only; they are read as µM.

Request: Write down the reported IC50 (system: Ribosomal protein S6 kinase alpha-3 (Homo sapiens)) of CCOc1cc(N2CCC(O)CC2)ccc1Nc1ncc2c(n1)N(C)c1ccccc1C(=O)N2C
Response: 49

====

- TARGET DESC: PAN2-PAN3 deadenylation complex subunit PAN3 (Homo sapiens, UniProt Q58A45)
- ASSAY REMARKS: Inhibition of PAN3 in human HeLa cells lysate pre incubated for 15 mins followed by ADP acyl phosphate probe addition and measured after 10 mins by LC-MS/MS analysis
pIC50: −log10 of the molar value.
PROPERTY LABEL: pIC50

Request: Check the records and state pIC50 for CCOc1cc(N2CCC(O)CC2)ccc1Nc1ncc2c(n1)N(C)c1ccccc1C(=O)N2C
Response: < 4.30
